# Tgt: Mucosa-associated lymphoid tissue lymphoma translocation protein 1 (Homo sapiens)
# Sequence (Q9UDY8 whole entry): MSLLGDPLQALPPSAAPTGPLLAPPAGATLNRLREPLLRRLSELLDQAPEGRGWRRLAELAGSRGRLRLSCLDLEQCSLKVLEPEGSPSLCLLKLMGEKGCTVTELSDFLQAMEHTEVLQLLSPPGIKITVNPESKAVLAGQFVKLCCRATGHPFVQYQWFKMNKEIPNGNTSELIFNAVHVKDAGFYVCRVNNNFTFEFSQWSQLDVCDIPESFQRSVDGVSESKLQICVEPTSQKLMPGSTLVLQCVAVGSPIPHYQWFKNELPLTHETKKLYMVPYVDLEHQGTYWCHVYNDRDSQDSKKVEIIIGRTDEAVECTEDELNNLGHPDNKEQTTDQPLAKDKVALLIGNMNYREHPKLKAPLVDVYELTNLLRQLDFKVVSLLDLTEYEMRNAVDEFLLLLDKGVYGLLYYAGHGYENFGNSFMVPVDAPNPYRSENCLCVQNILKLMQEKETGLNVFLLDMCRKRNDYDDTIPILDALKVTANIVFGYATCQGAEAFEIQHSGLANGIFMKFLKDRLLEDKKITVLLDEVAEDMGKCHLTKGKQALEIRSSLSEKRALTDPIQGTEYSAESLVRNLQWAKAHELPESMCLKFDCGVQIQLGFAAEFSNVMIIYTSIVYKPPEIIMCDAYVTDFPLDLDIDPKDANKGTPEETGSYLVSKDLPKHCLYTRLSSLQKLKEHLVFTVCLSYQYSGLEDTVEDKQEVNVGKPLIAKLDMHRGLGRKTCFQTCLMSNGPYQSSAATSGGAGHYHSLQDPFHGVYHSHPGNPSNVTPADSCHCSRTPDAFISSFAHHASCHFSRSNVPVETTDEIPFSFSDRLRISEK
# Assay details: Inhibition of MALT1 (unknown origin) using Ac-Trp-Leu-Arg-Ser-Arg'Cys(PT14)-NH2 as substrate preincubated for 60 mins followed by substrate addition measured after 60 mins by fluorescence assay
pIC50: −log10 of the molar value.
Experimental endpoint: pIC50

Study these solved cases before continuing.
>  <Structure as smiles>
N#Cc1ccnc(N2CCC(C(=O)Nc3ccc(F)c(Cl)c3)CC2)c1

>  <pIC50>
5.05

$$$$
>  <Structure as smiles>
O=C(Nc1cnc(-n2nccn2)c(Cl)c1)C1CCN(c2ncccc2Cl)CC1

>  <pIC50>
8.40

$$$$
>  <Structure as smiles>
Cc1nc(C)n(-c2ccc(NC(=O)C3CCN(c4ncccc4[N+](=O)[O-])CC3)cc2Cl)n1

>  <pIC50>
6.74

$$$$

A = Cc1ccc(NC(=O)C2CCN(c3ncccc3Cl)CC2)cc1Cl
B = N#Cc1cccnc1N1CCC(C(=O)Nc2ccc(F)c(Cl)c2)CC1
C = O=C(Nc1ccccc1)C1CCN(c2ncccc2Cl)CC1
D = O=C(Nc1cccc(Cl)c1)C1CCN(c2ncccc2Cl)CC1
E = O=C(Nc1ccc(F)c(Cl)c1)C1CCN(c2ncccn2)CC1
Arrange these compounds by their pIC50, starting with the largest number. Would you mind listing the labels in the order asked for?
A, D, B, E, C

The origin of these recorded values is ChEMBL document CHEMBL4118176.
